- subject_of_test: T1, Monomeric 8-histidine tagged human EGFRvIII extracellular domain (human, UniProt P00533 298-645)
- T1 construct: Analyte in all SPR assays; not shown: 8-histidine tag
- method_summary: SPR, scFv-Fc captured by anti-human Fc, 37 C
quantity: pKd
Answer as the number alone; pKd is minus log10 of concentration in mol/L.

Query: What measured pKd goes with 20B9.LH scFv-Fc protein (Fc fusion, LH: light-chain variable domain at the N-terminus; not shown: human IgG1 Fc moiety) EIVMTQSPATLSVSPGERATLSCRVSQSIGANLAWYQQKFGQAPRLLIYGASTRATGIPVRFSGGGSGTEFTLTISSLQSEDFAIYSCQQYIYWPFTFGPGTTVDIKGGGGSGGGGSGGGGSGGGGSQVTLKESGPVLVKPTETLTLTCTVSGFSLSNARMGVSWIRQPPGKALEWLGHIFSTDEKSYSTSLRGRITISKDTSRGLVVLTLTNMDPVDTATYYCARDSSNYEGYFDFWGPGFLVTVSS ?
Reply: 7.08

Query: Report pKd for h62G7-L6/EQ scFv-Fc protein (Fc fusion, not shown: human IgG1 Fc moiety) DVVMTQSPLSLPVTLGQPASISCKSSQSLLYSNGKTYLNWFQQRPGQSPRRLIYQVSKLDSGVPDRFSGSGSGTDFTLKISRVEAEDVGVYYCGQDTHFPLTFGGGTKVEIKGGGGSGGGGSGGGGSGGGGSQVQLVQSGAEVKKPGASVKVSCKASGYTFTDYTLHWVRQAPGQGLEWMGGIWPITGGTTYNQKFKGRVTMTRDTSTSTVYMELSSLRSEDTAVYYCARGEAQGSWGQGTLVTVSS please.
Reply: 7.00

Query: Given 20E12.LH scFv-Fc protein (Fc fusion, LH: light-chain variable domain at the N-terminus; not shown: human IgG1 Fc moiety) DIVLTQSPLSLSVTPGEPASISCRSSQSLLYSNGKNYLDWFLHKPGQSPQLLIYLGSNRASGVPDRFSGSGSGIDFILKISRVEAEDVGVYYCMQAQQTPITFGQGTRLEIKGGGGSGGGGSGGGGSGGGGSEVNLVESGGGLVKPGGSLRLSCEASGFTFSYAWMSWVRQAPGKGLEWVGRIKSIADGGATDYAAPVRNRFTISRDDSRNTLYLEMHSLKTEDTAVYYCTTIPGNDAFDMWGQGTMVTVSS , state its recorded pKd.
Reply: 6.03

Query: I have this binder here, C6.HL scFv-Fc protein (Fc fusion, HL: heavy-chain variable domain at the N-terminus; not shown: human IgG1 Fc moiety) QVQLVQSGAEVKKPGSSVKVSCKASGDTFSSNAISWVRQAPGQGLEWMGVIIPIFGTADYAQKFQGRVTITADESTSTAYMELSSLRSEDTAVYYCARHTYHEYAGGYYGGAMDPWGQGTLVTVSSGGGGSGGGGSGGGGSGGGGSELQSVLTQPPSASGTPGQRVTISCSGSSSNIGSNYVYWYQQLPGTAPKILIYRNNQRPSGVPDRFSGSKSGTSASLAISGLRSEDEADYYCAAWDDNLSGWVFGTGTKLTVL , and I need its recorded pKd.
Reply: 5.97

Query: Recorded pKd of 30D8.LH scFv-Fc protein (Fc fusion, LH: light-chain variable domain at the N-terminus; not shown: human IgG1 Fc moiety) DIVMTQSPLSLPVTPGEPASISCRSSQSLLHNKRNNYLDWFLQKPGQSPQLLIYLASNRASGVPDRFSGGGSGTDFTLKISRVEAEDVGVYYCMQAQQTPITFGQGTRLEIKGGGGSGGGGSGGGGSGGGGSEVQLVESGGGLVKPGGSLRLSCEASGFTFSDAWMSWVRQAPGKGLEWVGRIKSKTDGGTTDYVVPLNGRFIISRDDSRNTLYLQLNNLKTEDTAVYYCTTVPGSYGYWGQGTLVTVSS , please.
Reply: 6.46

Query: Could you tell me which pKd is on file for 26B9.LH scFv-Fc protein (Fc fusion, LH: light-chain variable domain at the N-terminus; not shown: human IgG1 Fc moiety) DIVLTQSPLSLPVTPGEPASISCRSSQSLLHRDGFNYLDWFLQKPGQSPQLLIYLASSRASGVPDRFSGSDSGTDFTLKISRVEAEDVGVYYCMQALQTPITFGQGTRLEIKGGGGSGGGGSGGGGSGGGGSEVQLVESWGVLVKPGGSLRLSCAASGFIFNNAWMSWVRQAPGKGLEWIGRIKSKSDGGTTDYAAPVKDRFTISRDDSKDTLYLQMNGLKTEDTAVYFCTTAPGGPFDYWGQGTLVTVSS ?
Reply: 6.31

Query: pKd lookup needed for 42G9.LH scFv-Fc protein (Fc fusion, LH: light-chain variable domain at the N-terminus; not shown: human IgG1 Fc moiety) EVVLTQSPATLSVSPGERATLSCRASQSVRSNLAWYQQKSGQAPRLLIYGSTIRATGVPARFSGSGSGTEFTLTISSLQSEDFAVYYCQQYSDWPFTFGPGTKVDIKGGGGSGGGGSGGGGSGGGGSQVTLKESGPVLLKPTETLTLTCTVSGFSLSNPRMGVSWIRQPPGKALEWFAHIFSTDEKSLKLSLRSRLTLSKDTSKSQVVLTMTNMAPVDSATYYCARDSSNYEGYFDFWGQGTLVTVSS , thanks.
Reply: 7.66

Query: Report pKd for 42G9.HL scFv-Fc protein (Fc fusion, HL: heavy-chain variable domain at the N-terminus; not shown: human IgG1 Fc moiety) QVTLKESGPVLLKPTETLTLTCTVSGFSLSNPRMGVSWIRQPPGKALEWFAHIFSTDEKSLKLSLRSRLTLSKDTSKSQVVLTMTNMAPVDSATYYCARDSSNYEGYFDFWGQGTLVTVSSGGGGSGGGGSGGGGSGGGGSEVVLTQSPATLSVSPGERATLSCRASQSVRSNLAWYQQKSGQAPRLLIYGSTIRATGVPARFSGSGSGTEFTLTISSLQSEDFAVYYCQQYSDWPFTFGPGTKVDIK please.
Reply: 7.73

Query: For 14C11.LH scFv-Fc protein (Fc fusion, LH: light-chain variable domain at the N-terminus; not shown: human IgG1 Fc moiety) EIVMTQSPATLSVSPGERATLSCRASQSVSNNLAWYQQKPGQAPRLLIYGASTRATGVPARFSGSDSGTEFSLTISSLQSEDFAVYFCQQYKDWPFTFGPGTKVEIKGGGGSGGGGSGGGGSGGGGSQVTLKESGPVLVKPTETLTLTCTVSGFSLNNARMGVSWIRQPPGKALEWFAHIFSTDEKSFRTSLRSRLTLSKDTSKSQVVLTMTNMDPVDTATYYCARDSSNYEGYFDYWGQGILVTVSS , what is its reported pKd?
Reply: 6.87
